This collection of values is drawn from PubChem BioAssay AID2280.

What inhibition was measured for each of the following?
Molecular target: Female germline-specific tumor suppressor gld-1 (Caenorhabditis elegans)
Test: small molecules blocking C. elegans GLD-1 RNA recognition – biochemical, fluorescence polarization, primary screen (AID 2280);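 further: 0% = DMSO wells with GLD-1 and probe and 100% = wells lacking GLD-1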
Conditions: purified GLD-1 + fluorescein TGE RNA, at 5.96 µM, hits give high values
Among all 320,000 compounds or so, about 1,400 (0.44%) were called active. This is one part of a sample in which actives are shown more often than they occur.
Numbers only, in %.

compound	study-target	metric	unit-text	observed-value
COC(=O)c1ccc(CNC(=O)C2CCC(=O)N(Cc3ccccn3)C2)cc1 (stereo not drawn)	Female germline-specific tumor suppressor gld-1 (Caenorhabditis elegans)	inhibition	%	0.64

Your task in this section: give inhibition for each listed record.
1. CC(C)CCn1c(=O)c2c(nc3n2CCCN3Cc2ccccc2)n(C)c1=O
2. COCCN1C=C2C(=O)C(C)(OC(=O)C3CCCC3)C(=O)C=C2C=C1c1ccsc1 (stereo not drawn)
3. O=C(OCCOCn1cc(Br)c(=O)[nH]c1=O)c1ccccc1

Response:
2.24
23.1
5.67
